The following compounds are listed with their measured pKi values.
assay: Displacement of [3H]-DTG from sigma 2 receptor from rat liver in presence of pantazocine
Lab note: report pKi as minus log10 of the concentration in molar units, number only.

Please review the following examples before continuing.
GET /value?item= COc1cccc2c1CCCC2CCCN1CCN(C2CCN(CCCCCCNc3ccc([N+](=O)[O-])c4nonc34)CC2)CC1 (configuration not stated) &field=pKi returns 5.76

Sure, the documented pKi for O=[N+]([O-])c1ccc(NCCCCCCOc2cccc3c2CCCC3CCCN2CCN(C3CCCCC3)CC2)c2nonc12 (configuration not stated) is 7.97

Record CN(C)c1cccc2c(S(=O)(=O)NCCCCCCOc3cccc4c3CCCC4CCCN3CCN(C4CCCCC4)CC3)cccc12 (configuration not stated) . Reported pKi: 7.68

More entries:
pKi in this record for COc1cccc2c1CCCC2CCCN1CCN(C2CCCCC2)CC1 (configuration not stated) : 9.17

====

Some compounds, each annotated with its measured log10(Ki).
biological target: Sigma non-opioid intracellular receptor 1 (Cavia porcellus, UniProt Q60492); assay: Displacement of [3H]-pentazocine from sigma 1 receptor from guinea pig brain membrane
Sequence (Q60492 whole entry): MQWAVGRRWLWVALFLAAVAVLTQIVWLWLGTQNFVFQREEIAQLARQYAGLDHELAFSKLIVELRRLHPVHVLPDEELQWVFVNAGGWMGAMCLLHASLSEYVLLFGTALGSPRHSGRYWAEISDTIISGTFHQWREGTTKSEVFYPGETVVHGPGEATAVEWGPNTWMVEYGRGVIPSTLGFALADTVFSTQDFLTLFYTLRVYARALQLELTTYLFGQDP
Log scale reminder: Ki in nM, then log10 taken.

The recorded log10(Ki) for COc1cccc2c1CCCC2CCCN1CCN(C2CCN(CCCCCCNc3ccc([N+](=O)[O-])c4nonc34)CC2)CC1 (stereo unspecified) is 3.41

Entry CN(C)c1cccc2c(S(=O)(=O)NCCCCCCOc3cccc4c3CCCC4CCCN3CCN(C4CCCCC4)CC3)cccc12 (stereo unspecified) , log10(Ki) reported as 0.96

Measured log10(Ki), CN(C)c1cccc2c(S(=O)(=O)NCCOCCOc3cccc4c3CCCC4CCCN3CCN(C4CCCCC4)CC3)cccc12 (stereo unspecified) : 1.30

// O=[N+]([O-])c1ccc(NCCOCCOc2cccc3c2CCCC3CCCN2CCN(C3CCCCC3)CC2)c2nonc12 (stereo unspecified) : log10(Ki) value = 1.98

Moving on to the next compound.
log10(Ki) in this record for O=[N+]([O-])c1ccc(NCCCCCCOc2cccc3c2CCCC3CCCN2CCN(C3CCCCC3)CC2)c2nonc12 (stereo unspecified) : 1.90

====

test: Displacement of [3H]-DTG from sigma 2 receptor from rat liver in presence of pantazocine
Reported Metric: pKi
// scale note: pKi = -log10(conc_M); give the bare number

Please review the entries below; each comes with its answer.
The compound listed as CN(C)c1cccc2c(S(=O)(=O)NCCOCCOc3cccc4c3CCCC4CCCN3CCN(C4CCCCC4)CC3)cccc12 (stereo not drawn) has a reported pKi of 7.59

Per the record, O=[N+]([O-])c1ccc(NCCOCCOc2cccc3c2CCCC3CCCN2CCN(C3CCCCC3)CC2)c2nonc12 (stereo not drawn) has pKi of 7.41

***
Query COc1cccc2c1CCCC2CCCN1CCN(C2CCN(CCCCCCNS(=O)(=O)c3cccc4c(N(C)C)cccc34)CC2)CC1 (stereo not drawn) yields pKi of 5.30
